Assay: melting temperature; fluorescence melt of hairpins on a sequencing array, two-state fit, raised by 9.35 °C to match UV melts
Conditions: sodium 0.088 M
// not fulfilled strictly below 40 °C in Tm; fulfilled otherwise

Sample answers from the record:
| primary-sequence | discrete-label |
| --- | --- |
| GACAGTGGAAACATTGTC ((((.((....)).)))) | fulfilled |
| GGCGTATCGAAAGATGCC (((..(((....)))))) | fulfilled |
| GGCCTTGGAAACAAGACC ((.((((....)))).)) | fulfilled |

Kindly determine if Tm recorded for ACCGAGAAATCGGT (((((....))))) is above or exactly 40 °C.
fulfilled

Reported Tm at or above 40 °C? GGCAGCGAAAGCTCAGCC ((((((....)))..)))
fulfilled

====

Assay: folding enthalpy; higher = less favourable; fluorescence melt of hairpins on a sequencing array, two-state fit
Settings: sodium 0.088 M
Cut-off -20 kcal/mol on folding enthalpy, inclusive. At or above means 1.0; below means 0.0.

As a guide, the following entries are already answered.
| primary-sequence | discrete-label |
| --- | --- |
| GGTTCCGAAAGGAAAACC ((((((....)))..))) | 1.0 |
| GCACTTACGAAAGTATGC (((..(((....)))))) | 1.0 |

Identify whether the reported folding enthalpy of the following sequence is -20 kcal/mol or greater: GAAGACGAAAGTCGATTC ((((((....)))..)))
0.0

Assess whether reported folding enthalpy for GATCATAGAGATGATC ((((((....)))))) sits at -20 kcal/mol or higher.
0.0

Record GTCTTGGGAAACCGAGAC ((((.((....)).)))) ; criterion: folding enthalpy no lower than -20 kcal/mol. Met?
0.0

Does the sequence GATCTCAGGTGAGATC ((((((....)))))) have recorded folding enthalpy that is -20 kcal/mol or more?
0.0

// inclusive: folding enthalpy at least -20 kcal/mol? input: GCGGAGCGAAAGCTATGC ((..(((....)))..))
1.0

Hello, I need to know if GTGCTGGGAAACCAACAC (((.(((....))).))) has measured folding enthalpy not below -20 kcal/mol. Thanks!
0.0

Does folding enthalpy meet or surpass -20 kcal/mol for GGAGCAGGAAACTGCTCC (((((((....))))))) ?
0.0

Reported folding enthalpy reaches at least -20 kcal/mol for GGGTAGACGAAAGTCCCC (((..(((....)))))) ?
1.0

Does GCTTGCGAAAGCAGAAGC ((((((....)))..))) have a reported folding enthalpy of at least -20 kcal/mol?
0.0

In plain terms: is recorded folding enthalpy at least -20 kcal/mol for GTGCGCCGAAAGGCACAC (((.(((....))).))) ?
0.0

====

Experiment: folding enthalpy; higher = less favourable; fluorescence melt of hairpins on a sequencing array, two-state fit
Conditions: sodium 0.088 M
The reader will find reported folding enthalpy values listed item by item below.
API: value field is a number in kcal/mol; no unit string.

Observe how each entry below is paired with its result.
| primary-sequence | quantitative-readout |
| --- | --- |
| GGGCTAGGAAACTAGCTC (.(((((....))))).) | -28.9 |
| GCCTGGCGAAAGCGGGGC (((..((....))..))) | -27 |
| GATCACATGGGTGATC ((((((....)))))) | -45.1 |
| GCATAAACGAAAGTTTGC (((..(((....)))))) | -18.5 |
| GATCAAAGGGTTGATC ((((((....)))))) | -28.3 |

Look up folding enthalpy: GGATCGACGAAAGTCTCC (((..(((....))))))
-10.6

For GGTGGAGGAAACTCCGTC (..((((....))))..) , what is its reported folding enthalpy?
-15.4

Name the reported folding enthalpy value associated with the sequence GGTGAAGGAAACTTTGCC ((..(((....)))..))
-25.4
